test system: MEC1 cells; assay: MTS cell viability assay, MEC1 cells (control or overexpressing UGT2B17); assay type: cell-based, human; conditions: MEC1, IC50 2B17 / CTRL
QUANTITY: Fold over control

[
  {
    "MOLECULE": "O=C(O)CCCc1ccc(N(CCCl)CCCl)cc1 [Chlorambucil, chlorambucil]",
    "TESTED_ON": "MEC1 cells",
    "Fold over control": 1.55
  }
]

For the molecule CC1(C)CCC(CN2CCN(c3ccc(C(=O)NS(=O)(=O)c4ccc(NCC5CCOCC5)c([N+](=O)[O-])c4)c(Oc4cnc5[nH]ccc5c4)c3)CC2)=C(c2ccc(Cl)cc2)C1 [Venetoclax, venetoclax] , what Fold over control is on record?
1.87

Please give the measured Fold over control for this molecule: Cn1c(CCCC(=O)O)nc2cc(N(CCCl)CCCl)ccc21 [Bendamustine, bendamustine]
1.27

Fill in the blank: the reported Fold over control of Nc1nc(F)nc2c1ncn2[C@@H]1O[C@H](CO)[C@@H](O)[C@@H]1O [Fludarabine, fludarabine] is ____.
2.01
